Data origin: the supplement of paper PMC9732359

assay: protein stability index of a GFP-peptide fusion (yeast GPS) (PSI 1-4); higher = more stable; sorted into four equal gates, so the index is relative within each strain; details: doa10∆
experimentalEndpoint: protein stability index
Reply briefly: the number, and no unit.

{"sequenceText": "ITDKTIESIVNLAPKLR [GRR1]", "protein stability index": 2.81}
{"sequenceText": "LVQLKKFSDLKFILQIL [YML103C/NUP188]", "protein stability index": 2.15}
{"sequenceText": "ENIENEEYVINLLKVSV [ECM29]", "protein stability index": 1.96}
{"sequenceText": "LFKGTGFNSWEGLFWEK [PRP8]", "protein stability index": 2.44}
{"sequenceText": "AMSETLSKVSLLTPDIG [PRE8]", "protein stability index": 3.08}

Find the measured protein stability index of ATEVTPQEPKHIQEEEE [RPC19] and report it. 3.24

Answer with the recorded protein stability index of ASKGRTKIDMPIKNRKN [BRN1] only. 3.21

Using known records, supply protein stability index for MLCTADTPEGEACGLVK [RET1] 1.47

Complete the entry with protein stability index for SKPSTASPSAHTSSSDG [RPN4] 2.71

Using known records, supply protein stability index for LDVSSDRRKARKAYFTA [RPL26A] 1.79

Annotate the sequence SSLHSPTSDEPVPESAG [SRB4] with its measured protein stability index. 2.61

Find the measured protein stability index of DVTPISMFGSDQKTGRA [RPN4] and report it. 2.93

For SVAKIRFPETMDETQTR [RPO21] , write its protein stability index. 3.55

Answer with the recorded protein stability index of LIIQYPPNNARRTYNTL [ISW2] only. 2.09

Tell us which protein stability index value is on record for QQQQQHQQQQQQQQQQQ [SNF5] 2.73

Look up and report measured protein stability index for this entry: LRPGRIDRKVEFSLPDL [RPT1] 3.19

Return protein stability index (reported value) for this sequence: NKLSGILADEMGLGKTL [ISW2] 3.1

Input QAHTLYNSVRPFGVSTI [PRE10] , output reported protein stability index. 2.71

* * *

assay: protein stability index of a GFP-peptide fusion (yeast GPS) (PSI 1-4); higher = more stable; sorted into four equal gates, so the index is relative within each strain; details: san1∆
Parameter protein stability index: see the listing below.

Previously resolved entries follow.
{"sequenceText": "SVGLPSKVASSLVIIIL [ECM29]", "protein stability index": 2.28}
{"sequenceText": "VVDVALKYPELSIKNSF [NUT1]", "protein stability index": 2.97}
{"sequenceText": "PKVSAGDSGISPEESKA [SIR4]", "protein stability index": 2.98}
{"sequenceText": "NLSRYPKSGIDIFVYLT [MTR3]", "protein stability index": 2.07}
{"sequenceText": "YWYFLQKLHKVKKASGE [RPL20A]", "protein stability index": 3.13}

Hello, please tell me recorded protein stability index for this one: DRAIRKTCQWYSEHLKP [DIS3] 3.01

Return value of protein stability index for input ISYKKGAASNRTKFVRS [RPL36A] , no commentary. 3.13

Please give the documented protein stability index of KRKPAKSSSNRSCVSNS [RPN4] 3.08

Supply measured protein stability index of NAIIEANLGKYGILSID [RPL7A] in your reply. 2.84

Determine from records and report protein stability index for KDHLLGRLASTIAKQVL [RPL16B] 1.25

Please report protein stability index for the following sequence: VFLEFSLNFIPITASTS [YML103C/NUP188] 1.62

Note down protein stability index recorded for NRGNKKRHRSSYYDNDL [YML031W/NDC1] 3.24

Quick one: give measured protein stability index for FEGWGHEYIRHLALEIG [RPN1] 2.41

Answer with the recorded protein stability index of TTLNEMFRYKTNLYKLK [PUP3] only. 1.76

* * *

experiment: protein stability index of a GFP-peptide fusion (yeast GPS) (PSI 1-4); higher = more stable; sorted into four equal gates, so the index is relative within each strain; conditions: ubr1∆
Decision: protein stability index >= 3 yields T, all other cases yield F.

Before answering, review these 3 worked examples.
{"sequenceText": "VGGTTSISGFKEALLGQ [ARP9]", "answerLabel": "F"}
{"sequenceText": "IWVGEWKEVLAHNPELE [RPO31]", "answerLabel": "F"}
{"sequenceText": "TIYYVDSDGTRLKGDIF [PRE2]", "answerLabel": "T"}

I'd appreciate it if you could say whether EKGNAKMIDFATLSKLK [SIR3] has protein stability index at least equal to 3. T

Decide: protein stability index of AETLCFTVNVLYPDSSS [RPN3] >= 3? F

Textbook exercise: given the entry PKDTSAATMTSAPPPAL [RGR1] , state whether its protein stability index is greater than or equal to 3. F

Tell me whether protein stability index is at least 3 here: LNEYKRETLVKTWEKVT [SMC2] F

# check: protein stability index of VGSENVECTISILRKSS [SNF12] is greater than or equal to 3 F

Is protein stability index for SNASQMGNTGSGGYDNA [RPB3] at or above 3? F

Test whether the sequence SASLKKIQQHNTILNSS [BRR2] records protein stability index of 3 or higher. F

Textbook exercise: given the entry TTTTTTTNNNNTNNNNT [SWI1] , state whether its protein stability index is greater than or equal to 3. T

# check: protein stability index of LDVSSDRRKARKAYFTA [RPL26A] is greater than or equal to 3 F

Decide: protein stability index of NQDSVKTYALESINNVV [RPN2] >= 3? T

* * *

assay: protein stability index of a GFP-peptide fusion (yeast GPS) (PSI 1-4); higher = more stable; sorted into four equal gates, so the index is relative within each strain; conditions: doa10∆
Measured protein stability index, listed per entry.
Returns: the value as a bare number; no unit string appended.

{"sequenceText": "VQKQTRAGQRTRFKAVV [RPS2]", "protein stability index": 3.04}
{"sequenceText": "RRFKNGFQTGSASKASA [RPL37A]", "protein stability index": 2.99}
{"sequenceText": "SFLMRQFTRFFLLVPSK [ECM29]", "protein stability index": 2.03}
{"sequenceText": "ERNNIGEICKNYELEKI [YDL116W/NUP84]", "protein stability index": 2.91}

Please report protein stability index for the following sequence: GELLHHPIMETIVNDSN [RPN9] 2.6

# return recorded protein stability index for entry CGLMTVIAKLNHNQFEC [RPB2] 2.33

State its protein stability index for this sequence: PNSNVELAGGNASLTIE [SMC1] 2.91

* * *

assay: protein stability index of a GFP-peptide fusion (yeast GPS) (PSI 1-4); higher = more stable; sorted into four equal gates, so the index is relative within each strain; details: san1∆
Kindly return Fulfilled if reported protein stability index is no lower than 3; return Not fulfilled if it is lower.

{"sequenceText": "RKVRTKKWKKYWQYKAG [SWP82]", "answerLabel": "Not fulfilled"}
{"sequenceText": "EIIFLGAQIVSKQIFTH [ARP9]", "answerLabel": "Not fulfilled"}
{"sequenceText": "MQDPDGIDINTKIFNSV [YCG1]", "answerLabel": "Not fulfilled"}
{"sequenceText": "KFKDMGIRAPKGALMYG [RPT5]", "answerLabel": "Fulfilled"}
{"sequenceText": "IILLGVLEDCRHLPMYT [ITC1]", "answerLabel": "Not fulfilled"}
{"sequenceText": "LVQLEPHLFVNGDLTVS [SSN2]", "answerLabel": "Not fulfilled"}

Tell me whether protein stability index is at least 3 here: VDFEKFETFLVDVNNKF [SIN4] Fulfilled

* * *

assay: protein stability index of a GFP-peptide fusion (yeast GPS) (PSI 1-4); higher = more stable; sorted into four equal gates, so the index is relative within each strain; details: san1∆
experimentalEndpoint: protein stability index

Examples with their reported protein stability index follow.
{"sequenceText": "EETNVDIGVLEEYARRL [SMC4]", "protein stability index": 3.64}
{"sequenceText": "NQLEDFILELEHKTPEL [YIL149C/MLP2]", "protein stability index": 3.07}
{"sequenceText": "PPPPQQSQPIANQSATS [SNF5]", "protein stability index": 2.92}
{"sequenceText": "VDSWDREFLKVDQEMLY [SKP1]", "protein stability index": 3.21}
{"sequenceText": "VRDTSPHGISVFLSNLV [BRR2]", "protein stability index": 2.55}

Item AYFLIIVPVISTIENVL [COB] : provide protein stability index 1.92

Check the records and state protein stability index for GRNGSNGNDESSEYETI [NUT1] 3.09

* * *

test: protein stability index of a GFP-peptide fusion (yeast GPS) (PSI 1-4); higher = more stable; sorted into four equal gates, so the index is relative within each strain; settings: pdr5∆
experimentalEndpoint: protein stability index
// keep it numeric: no unit symbol after the value

{"sequenceText": "LSSGESNEIKVTNDLDT [SIR4]", "endpointResult": 2.97}

Please indicate protein stability index recorded for AVSAASVVSMSNDVLKP [SIR2] 3.11

State its protein stability index for this sequence: ERAAQKLRLDQLVIQQG [ISW2] 2.52

Supply recorded protein stability index for GKGNTFEKVGSHLYKAR [RPN14] here. 2.81
